Biological target: T1, human NMI (N-myc Interacting protein), recombinant protein (human, UniProt Q13287 1-307, limits assumed)
T1 construct: Gene ID: 9111; also called hNMI; antigen
T1 sequence (looked up): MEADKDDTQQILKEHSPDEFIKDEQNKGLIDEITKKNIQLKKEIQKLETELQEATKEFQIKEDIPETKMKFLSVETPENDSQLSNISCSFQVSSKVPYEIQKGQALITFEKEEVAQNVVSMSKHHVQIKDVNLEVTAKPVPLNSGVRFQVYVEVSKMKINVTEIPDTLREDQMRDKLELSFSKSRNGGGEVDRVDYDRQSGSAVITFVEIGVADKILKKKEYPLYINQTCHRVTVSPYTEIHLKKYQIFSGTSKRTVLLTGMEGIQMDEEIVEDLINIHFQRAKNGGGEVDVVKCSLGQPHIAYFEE
Assay: ELISA, binding to hNMI
Each entry below lists one item and its recorded pEC50 value.
Please note pEC50 is a logarithmic value: minus log10 of concentration in mol/L. Answer with that number alone.

Use the examples below as a reference point.
Task: Which pEC50 is listed for 98G10-6 (antibody, V domains shown, also called 98G10 T81Y (VH), T18R/C80P (VL)) VH: QEQLEESGGDLVKPEGSLTLTCTASGFSFSASYWICWVRQAPGKGLEWIACIYGGSSGSAYYASWAKGRFTISKTSSTTVYLQMTSLTAADTATYFCARAGYYNYGSAGDIYPSSFKLWGPGTLVTVSS VL: DIVMTQTPASVEAAVGGRVTINCQASQSISTALAWYQQKPGQPPKLLIYTASKVASGVPSRFSGSGSGTQFTLTISDLEPADAATYYCQNYYYSSSSITFGGGTEVVVK ?
Output: 9.78

Task: Please report the recorded pEC50 for monoclonal antibody 98G10 (antibody, V domains shown, Rabbit monoclonal antibody) VH: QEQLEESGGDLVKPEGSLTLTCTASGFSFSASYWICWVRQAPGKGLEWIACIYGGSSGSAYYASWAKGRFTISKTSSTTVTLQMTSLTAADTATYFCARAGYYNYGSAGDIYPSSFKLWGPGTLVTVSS VL: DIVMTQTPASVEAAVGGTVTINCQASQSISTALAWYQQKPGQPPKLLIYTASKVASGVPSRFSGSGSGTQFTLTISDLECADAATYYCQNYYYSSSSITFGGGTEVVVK .
Output: 9.78

Below: the item to evaluate.
Task: What value of pEC50 has been recorded for this entry: 98G10-7 (antibody, V domains shown, also called 98G10 T23K/T81Y (VH), T18R/C80P (VL)) VH: QEQLEESGGDLVKPEGSLTLTCKASGFSFSASYWICWVRQAPGKGLEWIACIYGGSSGSAYYASWAKGRFTISKTSSTTVYLQMTSLTAADTATYFCARAGYYNYGSAGDIYPSSFKLWGPGTLVTVSS VL: DIVMTQTPASVEAAVGGRVTINCQASQSISTALAWYQQKPGQPPKLLIYTASKVASGVPSRFSGSGSGTQFTLTISDLEPADAATYYCQNYYYSSSSITFGGGTEVVVK
Output: 9.88

meta.source: patent EP4682166A1
